# Measured target: adenosine A1 receptor (Rattus norvegicus, UniProt P25099)
# Construct: Whole brain minus cerebellum and brainstem from male Long Evans rats (150-200 g) was homogenized
# Sequence (P25099 1-326): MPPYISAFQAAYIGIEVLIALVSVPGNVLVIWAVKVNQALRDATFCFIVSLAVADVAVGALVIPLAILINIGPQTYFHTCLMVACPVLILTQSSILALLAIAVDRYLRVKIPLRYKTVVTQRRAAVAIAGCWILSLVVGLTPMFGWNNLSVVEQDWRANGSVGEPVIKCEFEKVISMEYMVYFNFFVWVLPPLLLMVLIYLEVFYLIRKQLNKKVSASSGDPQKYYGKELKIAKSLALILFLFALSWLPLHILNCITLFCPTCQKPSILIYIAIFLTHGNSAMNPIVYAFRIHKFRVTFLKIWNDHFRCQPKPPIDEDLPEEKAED
# Measurement description: Adenosine Receptor Binding - A1 Receptor Affinity (RBA 1), [3H]-CHA displacement
# Condition set: rat whole brain membranes, 1.0 nM [3H]-CHA, one hour at 25°C
Property: pIC50
pIC50 here is simply -log10 of the concentration when that concentration is written in mol/L.

• Cc1ccc2c(c1C)OCC(Nc1ncnc3c1ncn3[C@@H]1O[C@H](CO)[C@@H](O)[C@H]1O)C2 (stereo partly shown) [Example 10] = 7.57

# ---- query compound ----
The compound listed as OC[C@H]1O[C@@H](n2cnc3c(NC4COc5ccccc5C4)ncnc32)[C@H](O)[C@@H]1O (stereo partly shown) [Example 4, N^6-[3-Chromanylamino]adenosine] shows pIC50 equal to 7.70

###

# Test system: mice falling off the inverted screen
# Measurement description: Mouse Activity and Screen Test Procedure (MAST): screen test (ST)
# Type: in vivo, Swiss-Webster male mice
# Condition set: 3 mg/kg intraperitoneally, one hour postinjection; percent of mice falling off the screen
# Method: The compounds of the invention are new chemical substances which are useful as pharmaceutical agents for the treatment of psychoses. […] A minimum of three dose levels (10, 30, and 100 mg/kg) are tested for each drug. […] All dosages are calculated as parent compound and given in volumes of 10 ml/kg. […] Testing: A two part testing procedure is started one hour postinjection. […] The number of mice falling off the inverted screen is recorded. […]
Property: Screen Test Failure (%)
Supply the numeric figure in %, leaving out any unit text.

- CC1Oc2ccccc2CC1Nc1ncnc2c1ncn2C1OC(CO)C(O)C1O (stereo not shown): 22
- OC[C@H]1O[C@@H](n2cnc3c(NC4COc5c(Cl)cccc5C4)ncnc32)[C@H](O)[C@@H]1O (stereo partly shown): 0
- Cc1ccc2c(c1C)OCC(Nc1ncnc3c1ncn3[C@@H]1O[C@H](CO)[C@@H](O)[C@H]1O)C2 (stereo partly shown): 0
- COc1ccc2c(c1)OCC(Nc1ncnc3c1ncn3[C@@H]1O[C@H](CO)[C@@H](O)[C@H]1O)C2 (stereo partly shown): 0
- OC[C@H]1O[C@@H](n2cnc3c(NC4CCSc5ccccc54)ncnc32)[C@H](O)[C@@H]1O (stereo partly shown): 11
- OC[C@H]1O[C@@H](n2cnc3c(NC4CCOc5ccccc54)ncnc32)[C@H](O)[C@@H]1O (stereo partly shown): 33

So, Cc1ccc2c(c1C)OC(C)C(Nc1ncnc3c1ncn3[C@@H]1O[C@H](CO)[C@@H](O)[C@H]1O)C2 (stereo partly shown) ? Its Screen Test Failure was 0

# Screen Test Failure (molecule: COc1ccc2c(c1)CC(Nc1ncnc3c1ncn3[C@@H]1O[C@H](CO)[C@@H](O)[C@H]1O)CO2 (stereo partly shown) ) is 0

Given item OC[C@H]1O[C@@H](n2cnc3c(NC4CSc5ccccc5C4)ncnc32)[C@H](O)[C@@H]1O (stereo partly shown) , the value recorded as its Screen Test Failure is 0

Entry O=S1(=O)CCC(Nc2ncnc3c2ncn3[C@@H]2O[C@H](CO)[C@@H](O)[C@H]2O)c2ccccc21 (stereo partly shown) — recorded Screen Test Failure = 0

Looking up OC[C@H]1O[C@@H](n2cnc3c(NC4COc5ccccc5C4)ncnc32)[C@H](O)[C@@H]1O (stereo partly shown) [Example 4, N^6-[3-Chromanylamino]adenosine] , I see its Screen Test Failure listed as 11

Lab note: measured Screen Test Failure of Cc1cc2c(cc1C)OCC(Nc1ncnc3c1ncn3[C@@H]1O[C@H](CO)[C@@H](O)[C@H]1O)C2 (stereo partly shown) was 0

Briefly, Screen Test Failure measured for C[C@H]1Oc2ccccc2C[C@@H]1Nc1ncnc2c1ncn2[C@@H]1O[C@H](CO)[C@@H](O)[C@H]1O (relative stereo) : 11
